tested on: rat brain N-type calcium channel subunits (α1B+α2δ+β1b cDNA subunits) (Rattus norvegicus)
Construct: expressed in transfected cells; host or cells: HEK 293
Sequence (Q02294 whole entry): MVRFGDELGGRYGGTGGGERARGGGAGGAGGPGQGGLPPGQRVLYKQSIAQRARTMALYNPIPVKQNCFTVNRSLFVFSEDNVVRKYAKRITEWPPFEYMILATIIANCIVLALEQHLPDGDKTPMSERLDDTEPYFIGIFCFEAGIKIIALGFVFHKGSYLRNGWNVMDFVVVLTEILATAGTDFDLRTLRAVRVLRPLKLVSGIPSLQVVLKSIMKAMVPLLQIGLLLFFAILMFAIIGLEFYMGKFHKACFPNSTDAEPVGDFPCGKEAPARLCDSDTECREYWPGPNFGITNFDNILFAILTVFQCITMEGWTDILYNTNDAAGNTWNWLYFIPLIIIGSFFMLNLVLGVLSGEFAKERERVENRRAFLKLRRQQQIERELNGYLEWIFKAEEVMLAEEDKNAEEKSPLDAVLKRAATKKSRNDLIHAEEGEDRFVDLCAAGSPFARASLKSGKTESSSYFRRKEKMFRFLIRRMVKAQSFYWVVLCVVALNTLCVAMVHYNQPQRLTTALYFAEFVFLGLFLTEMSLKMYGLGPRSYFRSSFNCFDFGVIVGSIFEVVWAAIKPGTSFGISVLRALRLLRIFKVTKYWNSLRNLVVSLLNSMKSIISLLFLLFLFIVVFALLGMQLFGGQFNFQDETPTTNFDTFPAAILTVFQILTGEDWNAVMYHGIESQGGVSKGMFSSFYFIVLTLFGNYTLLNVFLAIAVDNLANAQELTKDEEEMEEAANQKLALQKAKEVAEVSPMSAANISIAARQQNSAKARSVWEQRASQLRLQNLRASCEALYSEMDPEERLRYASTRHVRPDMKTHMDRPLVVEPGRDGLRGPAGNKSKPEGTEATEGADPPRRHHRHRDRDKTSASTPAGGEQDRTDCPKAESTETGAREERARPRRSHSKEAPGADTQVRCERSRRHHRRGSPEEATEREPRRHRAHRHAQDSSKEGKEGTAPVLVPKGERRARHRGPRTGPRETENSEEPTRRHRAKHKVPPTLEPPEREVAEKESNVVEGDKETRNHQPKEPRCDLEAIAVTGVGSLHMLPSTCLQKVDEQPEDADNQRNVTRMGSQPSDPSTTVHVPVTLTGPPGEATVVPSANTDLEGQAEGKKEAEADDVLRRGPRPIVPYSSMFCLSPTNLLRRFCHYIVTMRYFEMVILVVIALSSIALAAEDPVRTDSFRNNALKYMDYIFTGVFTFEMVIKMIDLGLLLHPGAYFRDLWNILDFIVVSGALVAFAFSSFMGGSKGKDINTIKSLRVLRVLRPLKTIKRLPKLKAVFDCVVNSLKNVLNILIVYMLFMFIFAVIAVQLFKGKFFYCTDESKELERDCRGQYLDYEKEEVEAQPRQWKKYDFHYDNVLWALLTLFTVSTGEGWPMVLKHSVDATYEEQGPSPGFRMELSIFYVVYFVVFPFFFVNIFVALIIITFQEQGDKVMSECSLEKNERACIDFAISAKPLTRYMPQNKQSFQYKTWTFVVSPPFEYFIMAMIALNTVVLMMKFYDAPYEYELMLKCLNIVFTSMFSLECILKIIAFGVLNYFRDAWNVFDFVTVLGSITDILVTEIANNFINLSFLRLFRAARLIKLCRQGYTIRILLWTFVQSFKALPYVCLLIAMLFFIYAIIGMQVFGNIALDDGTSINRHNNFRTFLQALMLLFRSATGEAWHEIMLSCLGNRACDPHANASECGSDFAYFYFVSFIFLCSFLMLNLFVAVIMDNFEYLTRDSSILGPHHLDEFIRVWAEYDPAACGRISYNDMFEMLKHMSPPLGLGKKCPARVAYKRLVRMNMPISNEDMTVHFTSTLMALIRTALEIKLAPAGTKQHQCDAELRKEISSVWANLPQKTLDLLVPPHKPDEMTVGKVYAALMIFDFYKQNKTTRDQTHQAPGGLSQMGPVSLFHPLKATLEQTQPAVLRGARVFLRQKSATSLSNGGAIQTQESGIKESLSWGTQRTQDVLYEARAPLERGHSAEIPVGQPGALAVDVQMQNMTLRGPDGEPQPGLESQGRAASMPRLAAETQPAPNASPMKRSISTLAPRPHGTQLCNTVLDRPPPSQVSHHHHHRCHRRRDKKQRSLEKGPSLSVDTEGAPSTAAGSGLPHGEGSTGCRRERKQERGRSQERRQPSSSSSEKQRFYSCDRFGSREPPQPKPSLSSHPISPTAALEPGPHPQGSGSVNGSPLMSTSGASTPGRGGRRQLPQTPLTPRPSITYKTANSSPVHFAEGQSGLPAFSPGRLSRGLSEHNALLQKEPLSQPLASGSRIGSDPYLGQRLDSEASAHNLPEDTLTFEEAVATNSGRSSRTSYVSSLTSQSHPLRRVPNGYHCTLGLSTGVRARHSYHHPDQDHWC
Sequence (P54290 25-944 partner limits assumed): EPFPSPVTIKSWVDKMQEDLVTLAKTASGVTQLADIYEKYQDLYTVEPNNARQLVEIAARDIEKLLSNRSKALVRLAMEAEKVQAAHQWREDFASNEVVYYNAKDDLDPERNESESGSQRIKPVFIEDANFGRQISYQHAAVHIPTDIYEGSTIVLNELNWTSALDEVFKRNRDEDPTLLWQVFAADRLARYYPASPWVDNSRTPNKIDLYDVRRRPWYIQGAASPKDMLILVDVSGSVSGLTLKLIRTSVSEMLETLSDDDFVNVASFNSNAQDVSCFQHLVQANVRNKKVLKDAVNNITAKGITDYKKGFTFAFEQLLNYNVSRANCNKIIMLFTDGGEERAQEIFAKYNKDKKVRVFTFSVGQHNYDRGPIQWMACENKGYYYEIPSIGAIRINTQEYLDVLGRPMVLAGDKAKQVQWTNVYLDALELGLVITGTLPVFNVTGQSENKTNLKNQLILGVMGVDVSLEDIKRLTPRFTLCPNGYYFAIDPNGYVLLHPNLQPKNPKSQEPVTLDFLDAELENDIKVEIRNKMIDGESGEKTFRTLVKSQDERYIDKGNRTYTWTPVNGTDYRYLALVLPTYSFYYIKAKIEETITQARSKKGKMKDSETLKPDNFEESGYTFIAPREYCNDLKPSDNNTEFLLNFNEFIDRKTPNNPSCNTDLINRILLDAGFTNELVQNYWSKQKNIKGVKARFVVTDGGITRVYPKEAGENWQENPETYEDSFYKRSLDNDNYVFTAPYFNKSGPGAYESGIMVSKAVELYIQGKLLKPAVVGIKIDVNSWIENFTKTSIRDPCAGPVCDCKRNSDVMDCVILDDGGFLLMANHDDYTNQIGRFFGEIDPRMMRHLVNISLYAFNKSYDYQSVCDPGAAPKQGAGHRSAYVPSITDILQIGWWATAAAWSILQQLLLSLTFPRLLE
Sequence (P54290 945-1091 partner limits assumed): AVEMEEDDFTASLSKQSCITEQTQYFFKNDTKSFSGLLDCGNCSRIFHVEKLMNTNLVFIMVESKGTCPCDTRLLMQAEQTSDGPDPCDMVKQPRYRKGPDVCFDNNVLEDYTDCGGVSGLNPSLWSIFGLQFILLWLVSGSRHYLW
Sequence (P54283 whole entry partner): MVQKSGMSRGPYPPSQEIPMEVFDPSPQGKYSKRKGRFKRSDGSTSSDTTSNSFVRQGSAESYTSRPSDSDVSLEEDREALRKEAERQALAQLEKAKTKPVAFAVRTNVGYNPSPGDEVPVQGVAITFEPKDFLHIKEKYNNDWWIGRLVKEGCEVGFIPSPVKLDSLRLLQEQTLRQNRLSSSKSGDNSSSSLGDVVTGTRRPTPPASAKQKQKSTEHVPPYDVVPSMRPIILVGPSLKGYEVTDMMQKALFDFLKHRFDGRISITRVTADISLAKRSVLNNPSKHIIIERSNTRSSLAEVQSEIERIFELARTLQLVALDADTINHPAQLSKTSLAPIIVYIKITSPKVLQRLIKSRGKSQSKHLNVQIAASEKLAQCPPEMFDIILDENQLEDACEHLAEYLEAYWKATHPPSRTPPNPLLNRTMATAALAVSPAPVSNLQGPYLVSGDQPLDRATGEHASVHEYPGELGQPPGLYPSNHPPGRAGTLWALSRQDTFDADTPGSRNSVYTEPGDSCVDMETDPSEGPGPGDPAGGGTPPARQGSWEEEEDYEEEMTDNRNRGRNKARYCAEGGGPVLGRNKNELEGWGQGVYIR
assay remarks: N-type calcium channel block, whole cell patch clamp in transfected HEK 293 cells
Format: cell-based
condition details: pulse frequency 0.2 Hz (frequency dependent block); holding potential −80 mV to +10 mV; read-out: IC50 @ 0.2 Hz
Checkbox rule: IC50 lower than 300 nM = met; IC50 not lower than 300 nM = not met.

Illustrative cases are given below, each with its answer.
Qu. In plain terms, does O=C(CN(c1ccccc1)c1ccccc1)N1CCN(C(c2ccccc2)c2ccc(Cl)cc2)CC1 (centres unmarked) come in under 300 nM for IC50?
Ans. not met

Qu. In plain terms, does Cc1ccc(C(c2ccccc2)N2CCN(CC(=O)N(c3ccccc3)c3ccccc3)CC2)c(C)c1 (centres unmarked) come in under 300 nM for IC50?
Ans. not met

Qu. In plain terms, does CN(C)CCCN1CCN(CC(=O)N(c2ccccc2)c2ccccc2)CC1 come in under 300 nM for IC50?
Ans. not met

Qu. In plain terms, does O=C(CN(c1ccccc1)c1ccccc1)N1CCN(C(c2ccccc2)c2ccccc2Cl)CC1 (centres unmarked) come in under 300 nM for IC50?
Ans. not met

Read the next record carefully.
Qu. In plain terms, does O=C(CN1CCN(C(c2ccccc2)c2ccccc2)CC1)N(c1ccccc1)c1ccccc1 come in under 300 nM for IC50?
Ans. met

Data origin, for the record: patent US20050227999A1
